Value source: patent US10160785B2

Tested on: Candida glabrata ATCC 2001
Experiment: microbe, parasite or virus in culture
Type: cell-based
Settings: RPMI broth microdilution, 35° C., 48 hours, visual
Procedure: All yeasts Candida albicans (Olomouc) and ATCC MYA-2876, Candida glabrata ATCC 2001 and DSY 565, Candida dubliniensis ATCC MYA-646, Candida krusei ATCC 6258 and Candida tropicalis ATCC 750 were sub-cultured from sterile vials onto Sabouraud dextrose agar, which was composed of 40 g dextrose (Penta, Czech Republic), 10 g peptone (OXOID, Great Britain) and 17 g agar (OXOID), dissolved in 1 l of distilled water, and cultivated for 24 hours at 35° C. […]
readout: Antifungal activity MIC C. glabrata ATCC 2001 (µM)

substance: H-GILSSLWKKLKKWIAK-NH2 [XVII]
unit_info: µM
recorded_number: 5.5
//
substance: H-GIWSSLLKKLKKIIAK-NH2 [XIV]
unit_info: µM
recorded_number: 19.1
//
substance: H-GIMSSLMKKLKKIIKK-NH2 [VII]
unit_info: µM
recorded_number: 40.0
//
substance: H-GILSKLLKKLKKIIAK-NH2 [XI]
unit_info: µM
recorded_number: 26.0
//
substance: H-GILKSLLKKLKKIIAK-NH2 [X]
unit_info: µM
recorded_number: 34.0
//
substance: H-GILSSWLKKLKKIIAK-NH2 [XV]
unit_info: µM
recorded_number: 40.0
//
substance: H-GILSSLLKKLKKWIAK-NH2 [XVIII]
unit_info: µM
recorded_number: 8.5
//
substance: H-KILSSLLKKLKKIIAK-NH2 [VI]
unit_info: µM
recorded_number: 28.0
//
substance: H-GILSSLLKKWKKIIAK-NH2 [XVI]
unit_info: µM
recorded_number: 40.0
//
substance: H-GIMSSLMKKLAAHIKK-NH2 [VIII]
unit_info: µM
recorded_number: 26.0
